- System name: mouse CD22 (Mus musculus, UniProt P35329)
- Construct: synthetic Siglec ligands for recombinant human and mouse CD22 ectodomains
- Sequence (P35329 22-708 limits assumed): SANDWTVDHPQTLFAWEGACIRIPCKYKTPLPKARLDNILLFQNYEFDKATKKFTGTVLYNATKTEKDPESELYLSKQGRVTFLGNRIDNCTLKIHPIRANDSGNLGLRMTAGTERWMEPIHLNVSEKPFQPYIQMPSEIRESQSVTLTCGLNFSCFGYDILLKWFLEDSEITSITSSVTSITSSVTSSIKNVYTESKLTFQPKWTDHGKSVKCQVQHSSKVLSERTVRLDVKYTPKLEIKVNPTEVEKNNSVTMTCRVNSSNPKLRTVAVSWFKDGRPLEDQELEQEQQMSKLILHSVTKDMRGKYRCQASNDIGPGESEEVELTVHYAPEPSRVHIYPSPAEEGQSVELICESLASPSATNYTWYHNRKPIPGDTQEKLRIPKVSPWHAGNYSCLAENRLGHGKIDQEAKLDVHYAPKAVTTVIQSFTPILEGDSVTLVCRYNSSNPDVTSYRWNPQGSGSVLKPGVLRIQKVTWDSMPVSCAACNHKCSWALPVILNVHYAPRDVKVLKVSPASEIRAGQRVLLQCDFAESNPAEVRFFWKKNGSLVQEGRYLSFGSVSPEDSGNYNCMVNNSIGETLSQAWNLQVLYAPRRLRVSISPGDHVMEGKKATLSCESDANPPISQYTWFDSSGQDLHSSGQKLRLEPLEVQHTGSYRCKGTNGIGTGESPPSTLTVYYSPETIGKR
- Assay remarks: SPR binding of synthetic Siglec ligands to mouse CD22 ectodomain (Biacore 8K+)
- Condition parameters: SPR; alkyne-terminating precursors of the PFP linkers; read-out: Mouse Siglec-2 Binding Affinity
Recorded endpoint: pKd
Value format note: pKd is -log10 of concentration (mol/L); just state the number.

Chemical string | pKd
C#CCOCCOCCO[C@]1(C(=O)O)C[C@H](O)[C@@H](NC(=O)CO)[C@H]([C@H](O)[C@H](O)CNC(=O)Cc2ccc(-c3ccccc3)cc2)O1 | 5.02

Would you kindly look at the next entry?
Q: Which pKd is reported with mouse CD22 (Mus musculus, UniProt P35329) for this entry: C#CCCO[C@@H]1O[C@H](CO[C@]2(C(=O)O)C[C@H](O)[C@@H](NC(=O)CO)[C@H]([C@H](O)[C@H](O)CNC(=O)Cc3ccc(-c4ccccc4)cc3)O2)[C@H](O)[C@H](O)[C@H]1O ?
Ans: 4.76

====

- System name: mouse CD22 (Mus musculus)
- Construct: synthetic Siglec ligands for recombinant human and mouse CD22 ectodomains
- Assay remarks: SPR binding of synthetic Siglec ligands to mouse CD22 ectodomain (Biacore 8K+)
- Condition parameters: grade in words for the conjugatable Siglec ligand-linker

Chemical string | Mouse Siglec-2 Binding Affinity
O=C(Cc1ccc(-c2ccccc2)cc1)NC[C@@H](O)[C@@H](O)[C@@H]1O[C@@](OCCOCCOCc2cn(CCOCCOCCOCCOCCC(=O)Oc3c(F)c(F)c(F)c(F)c3F)nn2)(C(=O)O)C[C@H](O)[C@H]1NC(=O)CO | Strong
O=C(CCOCCOCCn1cc(COCCOCCO[C@]2(C(=O)O)C[C@H](O)[C@@H](NC(=O)CO)[C@H]([C@H](O)[C@H](O)CNC(=O)Cc3ccc(-c4ccccc4)cc3)O2)nn1)NCCCC[C@H](NC(=O)CCCNC(=O)CCOCCOCCn1cc(COCCOCCO[C@]2(C(=O)O)C[C@H](O)[C@@H](NC(=O)CO)[C@H]([C@H](O)[C@H](O)CNC(=O)Cc3ccc(-c4ccccc4)cc3)O2)nn1)C(=O)NCCOCCOCCOCCOCCC(=O)Oc1c(F)c(F)c(F)c(F)c1F | Strong
O=C(CO)N[C@H]1[C@H]([C@H](O)[C@H](O)CO)O[C@@](OCCOCCOCc2cn(CCOCCOCCOCCOCCC(=O)Oc3c(F)c(F)c(F)c(F)c3F)nn2)(C(=O)O)C[C@@H]1O | Weak
O=C(CCOCCOCCn1cc(COCCOCCO[C@]2(C(=O)O)C[C@H](O)[C@@H](NC(=O)CO)[C@H]([C@H](O)[C@H](O)CO)O2)nn1)NCCCC[C@@H](CN[C@@H](CCCCNC(=O)CCOCCOCCn1cc(COCCOCCO[C@]2(C(=O)O)C[C@H](O)[C@@H](NC(=O)CO)[C@H]([C@H](O)[C@H](O)CO)O2)nn1)C(=O)NCCOCCOCCOCCOCCC(=O)Oc1c(F)c(F)c(F)c(F)c1F)NC(=O)CCCNCCCOCCOCCn1cc(COCCOCCO[C@]2(C(=O)O)C[C@H](O)[C@@H](NC(=O)CO)[C@H]([C@H](O)[C@H](O)CO)O2)nn1 | Weak

====

- System name: mouse CD22 (Mus musculus, UniProt P35329)
- Construct: synthetic Siglec ligands for recombinant human and mouse CD22 ectodomains
- Sequence (P35329 22-708 limits assumed): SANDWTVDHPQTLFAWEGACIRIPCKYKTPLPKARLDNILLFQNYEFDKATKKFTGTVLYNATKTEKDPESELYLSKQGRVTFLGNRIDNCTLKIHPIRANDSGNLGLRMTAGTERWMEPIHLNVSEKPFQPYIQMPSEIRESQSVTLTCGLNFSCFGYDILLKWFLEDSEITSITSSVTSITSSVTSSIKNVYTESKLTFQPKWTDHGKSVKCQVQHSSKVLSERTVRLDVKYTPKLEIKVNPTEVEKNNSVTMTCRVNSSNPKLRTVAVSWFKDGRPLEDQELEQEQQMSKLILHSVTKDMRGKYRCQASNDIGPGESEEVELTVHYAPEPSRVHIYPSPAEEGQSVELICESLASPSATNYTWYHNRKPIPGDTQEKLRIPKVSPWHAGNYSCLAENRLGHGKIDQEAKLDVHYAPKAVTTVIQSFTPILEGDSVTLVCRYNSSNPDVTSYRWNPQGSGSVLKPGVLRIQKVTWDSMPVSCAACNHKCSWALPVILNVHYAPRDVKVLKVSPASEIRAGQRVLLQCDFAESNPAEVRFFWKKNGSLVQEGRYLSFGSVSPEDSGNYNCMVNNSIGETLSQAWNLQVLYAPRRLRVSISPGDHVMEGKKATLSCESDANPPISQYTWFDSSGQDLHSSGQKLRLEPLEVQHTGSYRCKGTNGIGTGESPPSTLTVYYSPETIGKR
- Assay remarks: SPR binding of synthetic Siglec ligands to mouse CD22 ectodomain (Biacore 8K+)
- Condition parameters: grade in words for the conjugatable Siglec ligand-linker
Recorded endpoint: Mouse Siglec-2 Binding Affinity

Below, 5 compounds whose answers are already recorded.
Compound | Mouse Siglec-2 Binding Affinity
O=C(CCOCCOCCn1cc(COCCOCCOCCOCCO)nn1)NCCCC[C@@H](NC(=O)CCCNC(=O)CCOCCOCCn1cc(COCCOCCOCCOCCO)nn1)C(=O)NCCOCCOCCOCCOCCC(=O)Oc1c(F)c(F)c(F)c(F)c1F [Cpd. No. 26532] | No Binding
CC(=O)N[C@H]1[C@H]([C@H](O)[C@H](O)CNC(=O)c2cccc(Oc3ccccc3)c2)O[C@@](OC[C@H]2O[C@@H](OCCc3cn(CCOCCOCCOCCOCCC(=O)Oc4c(F)c(F)c(F)c(F)c4F)nn3)[C@H](O)[C@@H](O)[C@H]2O)(C(=O)O)C[C@@H]1O [Cpd. No. 24906] | V. weak
O=C(CCOCCOCCn1cc(COCCOCCOCCOCCO)nn1)NCCCC[C@@H](NC(=O)CCCNC(=O)CCOCCOCCn1cc(COCCOCCOCCOCCO)nn1)C(=O)N[C@H](CCCCNC(=O)CCOCCOCCn1cc(COCCOCCOCCOCCO)nn1)C(=O)NCCOCCOCCOCCOCCC(=O)Oc1c(F)c(F)c(F)c(F)c1F [Cpd. No. 26534] | No Binding
O=C(CCOCCOCCOCCOCCn1cc(COCCOCCOCCOCCO)nn1)Oc1c(F)c(F)c(F)c(F)c1F [Cpd. No. 26530] | No Binding
O=C(CCOCCOCCn1cc(COCCOCCO[C@]2(C(=O)O)C[C@H](O)[C@@H](NC(=O)CO)[C@H]([C@H](O)[C@H](O)CO)O2)nn1)NCCCC[C@H](NC(=O)CCCNC(=O)CCOCCOCCn1cc(COCCOCCO[C@]2(C(=O)O)C[C@H](O)[C@@H](NC(=O)CO)[C@H]([C@H](O)[C@H](O)CO)O2)nn1)C(=O)NCCOCCOCCOCCOCCC(=O)Oc1c(F)c(F)c(F)c(F)c1F [Cpd. No. 26615] | Weak

Q: Dear colleague, I am looking for the recorded Mouse Siglec-2 Binding Affinity of the following compound: CC(=O)N[C@H]1[C@H]([C@H](O)[C@H](O)CNC(=O)c2cccc(Oc3ccccc3)c2)O[C@@](OCCOCc2cn(CCOCCOCCC(=O)NCCCC[C@H](NC(=O)CCCNC(=O)CCOCCOCCn3cc(COCCO[C@]4(C(=O)O)C[C@H](O)[C@@H](NC(C)=O)[C@H]([C@H](O)[C@H](O)CNC(=O)c5cccc(Oc6ccccc6)c5)O4)nn3)C(=O)NCCOCCOCCOCCOCCC(=O)Oc3c(F)c(F)c(F)c(F)c3F)nn2)(C(=O)O)C[C@@H]1O [Cpd. No. 26289]
Ans: V. weak
